Biological target: wtKIT (Homo sapiens, UniProt P10721)
Construct: 1888289AM in the reaction mixtures
Sequence (P10721 26-976): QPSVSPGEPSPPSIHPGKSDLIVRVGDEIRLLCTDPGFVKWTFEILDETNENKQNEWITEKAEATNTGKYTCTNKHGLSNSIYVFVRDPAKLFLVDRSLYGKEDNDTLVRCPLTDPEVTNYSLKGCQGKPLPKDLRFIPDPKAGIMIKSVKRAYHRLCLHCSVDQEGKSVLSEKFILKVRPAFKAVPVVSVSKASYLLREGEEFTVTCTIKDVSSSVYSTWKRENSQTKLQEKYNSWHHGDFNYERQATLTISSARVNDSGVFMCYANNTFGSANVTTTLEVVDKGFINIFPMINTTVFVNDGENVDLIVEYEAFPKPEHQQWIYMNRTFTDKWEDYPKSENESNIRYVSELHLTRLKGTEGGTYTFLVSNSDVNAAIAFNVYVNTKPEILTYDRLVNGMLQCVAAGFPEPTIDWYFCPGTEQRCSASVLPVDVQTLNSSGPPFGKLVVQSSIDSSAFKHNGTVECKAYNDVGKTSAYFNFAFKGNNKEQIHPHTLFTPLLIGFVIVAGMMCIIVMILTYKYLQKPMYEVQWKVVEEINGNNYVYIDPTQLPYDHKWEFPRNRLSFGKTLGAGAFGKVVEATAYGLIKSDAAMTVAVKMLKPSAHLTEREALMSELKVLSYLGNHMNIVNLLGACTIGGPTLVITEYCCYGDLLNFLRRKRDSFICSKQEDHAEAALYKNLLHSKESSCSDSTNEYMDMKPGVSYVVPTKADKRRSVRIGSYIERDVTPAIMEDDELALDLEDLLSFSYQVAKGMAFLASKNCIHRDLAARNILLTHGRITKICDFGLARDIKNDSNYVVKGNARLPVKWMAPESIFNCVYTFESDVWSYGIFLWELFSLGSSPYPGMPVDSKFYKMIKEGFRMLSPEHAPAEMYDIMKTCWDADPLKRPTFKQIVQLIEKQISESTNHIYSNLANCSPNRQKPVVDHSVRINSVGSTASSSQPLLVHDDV
Assay: HTRF biochemical assay, wtKIT (phosphorylation of a peptide substrate)
Conditions: Table 4
# key: entry, value: IC50

Cc1ccc(-c2noc([C@H]3C[C@@H]3F)n2)cc1NC(=O)c1cnc2cc(COCC(C)(C)O)ccn12 [Compound I-71] :: ≤ 50 nM

Recorded IC50 (compound COc1ccn2c(C(=O)Nc3cc(-c4noc(Cc5ccccc5)n4)ccc3C)cnc2c1 [Compound I-552] ): ≤ 50 nM

Recorded IC50 (compound Cc1ccc(-c2noc([C@H]3C[C@@H]3F)n2)cc1NC(=O)c1cnc2cc(C(N)=O)ccn12 [Compound I-207] ): ≤ 50 nM

Recorded IC50 (compound Cc1ccc(-c2noc(-c3cccnc3)n2)cc1NC(=O)c1cnn2cc(-c3ccn(C)n3)ccc12 [Compound I-723] ): ≤ 50 nM

Recorded IC50 (compound Cc1nc(-c2ccc(C)c(NC(=O)c3cnc4cc(C5CCNC5=O)ccn34)c2)no1 (stereo not drawn) [Compound I-448] ): 500 to 5000 nM

Recorded IC50 (compound Cc1ccc(-c2noc(C3CC(F)(F)C3)n2)cc1NC(=O)c1cnc2cc(COCC(C)(C)O)ccn12 [Compound I-521] ): ≤ 50 nM

Recorded IC50 (compound COc1ccc2ncc(C(=O)Nc3cc(-c4noc(C[C@H](C)O)n4)ccc3C)n2c1 [Compound I-89] ): ≤ 50 nM

Recorded IC50 (compound Cc1ccc(-c2noc(N3CC(F)(F)C3)n2)cc1NC(=O)c1cnc2cc(OCCCN3CCCC3)ccn12 [Compound I-631] ): ≤ 50 nM
